- TEST METHOD NOTES: NCI Yeast Anticancer Drug Screen. Data for the sgs1 mgt1 strain (AID 161);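 also: 0% = growth of cultures given vehicle only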
- MEASUREMENT CONDITIONS: S. cerevisiae sgs1 mgt1 strain; at 50.0 µM unless noted
The panel holds about 79,000 compounds, 15% with a hit somewhere; the sample as a whole holds those more often. The source made the active and inactive calls. Rule as the data show it: active = growth inhibition above about 70%; inactive = the rest.
Thanks in advance; please answer with one of these: yes (1) (active), no (0) (inactive)

Solved cases below.
Assay outcome for CCN(CC)CCNc1c(OC)c(OC)cc2nccnc12 : what was it? no (0)

Quick one: O=[N+]([O-])/C=C/c1cn(CCCCCCCCCCCCn2cc(/C=C/[N+](=O)[O-])c3ccccc32)c2ccccc12 no (0)

Now for another entry.
Assay outcome for Cc1c2ccncc2c(C)c2c1[nH]c1ccc(O)cc12 : what was it? no (0)
